Target Desc: Calmodulin-1 (Homo sapiens)
Method Notes: calcium-bound CALM1 binders on microarrays, profiling panel, artefact control for SMM control-protein annotation, biochemical, small-molecule microarray, Cy5-labelled CALM1, plus calcium (AID 1112);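 further: score merges spot fluorescence with signal to noise from triplicate slides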
Run Parameters: Cy5-CALM1 binding fluorescence, higher = more signal
For each of the compounds below, state its composite z-score.
Enter a number only.

Q: Value lookup for composite z-score; key = [N-]=[N+]=NCc1ccccc1[C@@H]1OC(c2ccc(OCCCO)cc2)=N[C@]1(Cc1ccccc1N=[N+]=[N-])C(=O)NCc1ccccc1
Ans: 0.12

Q: Value lookup for composite z-score; key = C[N+](C)(C)CCCCCCNC(=O)[C@H]1C[C@H]2C(=O)N3CCC[C@H]3C(=O)N2[C@H]1c1ccc(O)cc1
Ans: -0.965

Q: Value lookup for composite z-score; key = CC(C)CNC(=O)[C@@]1(c2ccc([N+](=O)[O-])cc2)CC(=O)N(CC23CC4CC(CC(C4)C2)C3)[C@@H]1c1ccc(CO)cc1I
Ans: -0.111

Q: Value lookup for composite z-score; key = COCCOC(=O)N1C(=O)[C@@]2(c3cc(C#CCNC(N)=O)ccc31)[C@H](C(=O)N1CCc3cc(OC)c(OC)cc3C1)[C@H]1C(=O)O[C@H](c3ccccc3)[C@H](c3ccccc3)N1[C@@H]2c1ccc(OCCO)cc1
Ans: -0.178

Q: Value lookup for composite z-score; key = C=CCOC(=O)[C@H]1[C@@H]2C(=O)O[C@@H](c3ccccc3)[C@@H](c3ccccc3)N2[C@@H](c2ccc(OCCOC(=O)[C@@H]3C[C@@H]4C(=O)NCC(=O)N4[C@@H]3c3ccc(O)cc3)cc2)[C@]12C(=O)Nc1ccccc12
Ans: 0.0637

Q: Value lookup for composite z-score; key = CCN(CC)c1ccc(N2CC=CC34O[C@@H]5/C=C\CCCOC(=O)C5[C@H]3C(=O)N(C(CO)C(C)C)[C@@H]4C2=O)cc1 (stereo partly specified)
Ans: -1.15
